assay: NCI Yeast Anticancer Drug Screen. Data for the rad50 strain (AID 155); details: S. cerevisiae rad50 strain growth inhibition; at 50.0 µM; stronger effect = higher value
The panel holds about 79,000 compounds, 15% with a hit somewhere; the sample as a whole holds those more often. Where a SMILES comes first, the peptide text is derived from it. The star is where a group is joined. Cbz = O=C(OCc1ccccc1)*; NHNH2 = NN*
Classification field: enter Criterion met for growth inhibition values not below 20%, Criterion not met for values below it.

>  <molecule>
O=C(NC1C2CC3CC(C2)CC1C3)c1cc(/C=C/c2ccccc2)[nH]c(=S)n1 (centres undefined)

>  <assigned_class>
Criterion not met

$$$$
>  <molecule>
c1ccc2[nH]c3[nH]c4[nH]c5ccccc5[nH]c4[nH]c3[nH]c2c1

>  <assigned_class>
Criterion not met

$$$$
>  <molecule>
CCCCCC(=O)N1SC(NC(=O)OC)=Nc2ccccc21

>  <assigned_class>
Criterion met

$$$$
>  <molecule>
COc1cc(C2(C)SCCCS2)c(I)c(OC)c1OC

>  <assigned_class>
Criterion not met

$$$$
>  <molecule>
CCCCCC(CN(C)C)C(O)CCc1ccc(Cl)c(Cl)c1 (centres undefined)

>  <assigned_class>
Criterion met

$$$$
>  <molecule>
N#C/C(=C\c1ccco1)C(=O)Nc1ccc(Br)cc1

>  <assigned_class>
Criterion met

$$$$
>  <molecule>
Cc1ccccc1C(=O)N(C(C)C)C(C)C

>  <assigned_class>
Criterion not met

$$$$
>  <molecule>
COC(=O)CC(NC(=O)OCc1ccccc1)C(=O)NC(CC(=O)OC)C(=O)NC(CC(=O)OC)C(=O)NC(CC(=O)OC)C(=O)NC(CC(=O)OC)C(=O)NC(CC(=O)OC)C(=O)NN (centres undefined) (Cbz-D(OMe)D(OMe)D(OMe)D(OMe)D(OMe)D(OMe)-NHNH2; configuration not given here)

>  <assigned_class>
Criterion not met

$$$$
